The reported numbers originate from the supplement of paper PMC6555819.

- Test system: THRa:RXRa (NR concentration 90 nM, RXRa partner concentration 90 nM)
- assaySummary: PBM binding z-score (relative to random genomic background probes); higher = stronger binding; sequences stand for … in GC…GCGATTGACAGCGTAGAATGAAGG
Please provide measured PBM binding z-score for the entries that follow.
Note: the reply should be a number with no unit written.

# input sequence: `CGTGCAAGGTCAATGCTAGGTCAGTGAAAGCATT` ; wanted: its PBM binding z-score
4.64

# input sequence: `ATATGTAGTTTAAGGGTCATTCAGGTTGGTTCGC` ; wanted: its PBM binding z-score
3.37

# input sequence: `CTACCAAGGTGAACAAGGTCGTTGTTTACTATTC` ; wanted: its PBM binding z-score
3.23

# input sequence: `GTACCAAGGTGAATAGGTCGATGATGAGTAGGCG` ; wanted: its PBM binding z-score
1.52

====

- System: PPARg:RXRa IVT, anti-PPARg (NR concentration 270 nM, RXRa partner concentration 90 nM)
- assaySummary: PBM binding z-score (relative to random genomic background probes); higher = stronger binding; sequences stand for … in GC…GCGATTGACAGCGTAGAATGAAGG
Response key: T means PBM binding z-score >= 1; F means PBM binding z-score < 1.

Decide: is the reported value of PBM binding z-score for `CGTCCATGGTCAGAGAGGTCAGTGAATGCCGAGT` equal to or greater than 1?
F

Decide: is the reported value of PBM binding z-score for `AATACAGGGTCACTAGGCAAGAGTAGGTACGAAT` equal to or greater than 1?
T

Decide: is the reported value of PBM binding z-score for `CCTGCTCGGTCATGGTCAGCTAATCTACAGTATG` equal to or greater than 1?
F

Decide: is the reported value of PBM binding z-score for `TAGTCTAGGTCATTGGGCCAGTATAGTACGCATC` equal to or greater than 1?
T

Decide: is the reported value of PBM binding z-score for `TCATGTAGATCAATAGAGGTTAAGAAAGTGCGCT` equal to or greater than 1?
F

Decide: is the reported value of PBM binding z-score for `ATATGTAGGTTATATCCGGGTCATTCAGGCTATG` equal to or greater than 1?
T

Decide: is the reported value of PBM binding z-score for `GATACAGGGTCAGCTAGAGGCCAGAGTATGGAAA` equal to or greater than 1?
T

Decide: is the reported value of PBM binding z-score for `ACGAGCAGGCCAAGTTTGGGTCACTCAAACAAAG` equal to or greater than 1?
F

Decide: is the reported value of PBM binding z-score for `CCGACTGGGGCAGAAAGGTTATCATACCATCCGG` equal to or greater than 1?
T

Decide: is the reported value of PBM binding z-score for `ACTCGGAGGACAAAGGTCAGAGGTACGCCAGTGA` equal to or greater than 1?
T

Decide: is the reported value of PBM binding z-score for `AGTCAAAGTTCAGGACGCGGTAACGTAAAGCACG` equal to or greater than 1?
T

Decide: is the reported value of PBM binding z-score for `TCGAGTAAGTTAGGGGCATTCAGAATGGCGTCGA` equal to or greater than 1?
F

Decide: is the reported value of PBM binding z-score for `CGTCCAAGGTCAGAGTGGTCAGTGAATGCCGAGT` equal to or greater than 1?
T

Decide: is the reported value of PBM binding z-score for `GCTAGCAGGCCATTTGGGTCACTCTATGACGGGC` equal to or greater than 1?
T
